Tested on: A498 renal
PROTOCOL_NOTES: NCI tumour cell line growth inhibition, 48 h; in the data active = GI50 below about 0.43 µM; inactive = the rest
Classes used: active, inactive

molecule_smiles=CN(CCC#N)c1ccc(/C=C(\C#N)c2cccc(C(F)(F)F)c2)cc1 assigned_label=inactive
molecule_smiles=CN(Cc1cnc(N)nc1N)c1ccc(C(=O)O)cc1 assigned_label=inactive
molecule_smiles=CC[C@@]1(OC(=O)CN)C(=O)OCc2c1cc1n(c2=O)Cc2cc3cc4c(cc3nc2-1)OCO4 assigned_label=active
molecule_smiles=Cc1cc(N2CCN(C)CC2)nc(NCc2cc(Nc3ccnc4cc(Cl)ccc34)ccc2F)n1 assigned_label=inactive
molecule_smiles=COc1cc(-c2nn(-c3ccc(NC(=O)Nc4ccc(Cl)c(Cl)c4)cc3)cc2-c2ccncc2)ccc1Cl assigned_label=inactive
molecule_smiles=CN1CCN(CCCOc2cccc3nc(Nc4ccc(Cl)c(F)c4)ccc23)CC1 assigned_label=inactive

* * *

The following compounds are shown together with reported GI50 values.
System: SF-295 CNS
PROTOCOL_NOTES: NCI tumour cell line growth inhibition, 48 h
QUANTITY_KIND: GI50

compound=N#CC(C#N)=Cc1c(-c2ccccc2)[nH]c2ccccc12 measured_on="SF-295 CNS" observed_measurement="1.59 µM"
compound=CN(Cc1cnc(N)nc1N)c1ccc(C(=O)O)cc1 measured_on="SF-295 CNS" observed_measurement="> 100 µM"
compound=O=[N+]([O-])c1cc([N+](=O)[O-])c(Cl)c(Cl)c1Cl measured_on="SF-295 CNS" observed_measurement="8.15 µM"
compound="COc1cc2c(c(OC)c1OC)C(=O)CC(c1cccc(NC(=O)c3ccc(Br)cc3)c1)O2 (centres undefined)" measured_on="SF-295 CNS" observed_measurement="2.6 µM"
compound=C=C1C(=O)O[C@H]2[C@H]1CC/C(Cn1cc(CNCCc3c[nH]c4ccc(Cl)cc34)nn1)=C\CC[C@@]1(C)O[C@@H]21 measured_on="SF-295 CNS" observed_measurement="30.9 µM"
compound=Cc1oc2nc[nH]c(=O)c2c1C(=O)/C=C/c1ccc(Cl)cc1 measured_on="SF-295 CNS" observed_measurement="4.5 µM"
compound=[C-]#[O+].[Cl][Sn]([Cl])[Cl].[Cl][Sn]([Cl])[Cl].[Pt].c1ccc([PH+](c2ccccc2)c2ccccc2)cc1.c1ccc([PH+](c2ccccc2)c2ccccc2)cc1 measured_on="SF-295 CNS" observed_measurement="71.5 µM"
compound=CC(=O)Nc1ccc(-c2c3nc(c(-c4cc5ccccc5[n+](C)c4)c4ccc([nH]4)c(-c4ccc(NC(C)=O)cc4)c4nc(c(-c5cc6ccccc6[n+](C)c5)c5ccc2[nH]5)C=C4)C=C3)cc1 measured_on="SF-295 CNS" observed_measurement="6.65 µM"
compound=CN1CCN(CCCOc2cccc3nc(Nc4ccc(Cl)c(F)c4)ccc23)CC1 measured_on="SF-295 CNS" observed_measurement="1.79 µM"

* * *

The following compounds are shown together with reported TGI values.
Test system: KM12 colon
PROTOCOL_NOTES: NCI tumour cell line growth inhibition, 48 h
QUANTITY_KIND: TGI

compound="NC1=NC(c2ccc(Cl)cc2)N(c2ccc(S(=O)(=O)Nc3ncccn3)cc2)C(N)=N1 (stereo not given)" quantity_kind=TGI observed_measurement="> 100 µM"
compound=COc1cc(=O)oc(/C=C/C=O)c1C quantity_kind=TGI observed_measurement="38.2 µM"
compound=Nc1nc(N)c(C2=CCN(Cc3ccccc3)CC2)c(=O)[nH]1 quantity_kind=TGI observed_measurement="> 100 µM"
compound=CN1CCC(CNC(=O)CCCCCCCCC(=O)NCC2(c3ccccc3)CCN(C)CC2)(c2ccccc2)CC1 quantity_kind=TGI observed_measurement="> 100 µM"
compound="O=C(c1ccco1)C1CC(c2ccc3ccccc3c2O)=NN1 (stereo not given)" quantity_kind=TGI observed_measurement="> 100 µM"
compound=Cc1cc(Cc2cc(C)c(O)c(C)c2)cc(C)c1O quantity_kind=TGI observed_measurement="15.7 µM"
compound=Oc1ccc(Cl)cc1-c1[nH]c(=S)nc(-c2ccccc2)c1Cl quantity_kind=TGI observed_measurement="> 100 µM"
compound=COc1cc([N+](=O)[O-])c(S(=O)(=O)O)cc1NS(=O)(=O)c1ccc(C)cc1 quantity_kind=TGI observed_measurement="> 100 µM"
compound=COc1cccc(/C(CC(O)(C(F)(F)F)C(F)(F)F)=N\N(C)C)c1 quantity_kind=TGI observed_measurement="> 100 µM"
compound=O=c1[nH][nH]c(=O)[nH]1 quantity_kind=TGI observed_measurement="> 100 µM"
compound=N#Cc1nc(C2CC2)oc1N quantity_kind=TGI observed_measurement="> 100 µM"
compound=C=C(C)[C@@H]1CC[C@]2(C)CC[C@]3(C)[C@H](CC[C@@H]4[C@@]5(C)CC[C@H](OC(=O)c6ccccc6)C(C)(C)[C@@H]5CC[C@]43C)[C@@H]12 quantity_kind=TGI observed_measurement="> 100 µM"
compound="COC1C(O)C(C)OC(OC2C(Oc3cccc4c(O)c5c(=O)oc6ccc(C)c7c(=O)oc(c34)c5c67)OC(C)C3O[C@H](c4ccccc4)OC32)C1O (stereo not given in full)" quantity_kind=TGI observed_measurement="8.49 µM"
compound=[N-]=[N+]=Nc1ccc(CCN2CCN(c3cccc(C(F)(F)F)c3)CC2)cc1I quantity_kind=TGI observed_measurement="> 100 µM"
compound=CN(C)CCNc1ccc2ncnc3c2c1C(=O)c1ccccc1-3 quantity_kind=TGI observed_measurement="4.55 µM"
compound=C[n+]1noc(/N=N\[O-])c1-c1cc(-c2c(/N=N\[O-])on[n+]2C)cc(-c2c(/N=N/[O-])on[n+]2C)c1 quantity_kind=TGI observed_measurement="> 100 µM"
compound="CC1CC(C)[C@H](O)C([C@H](O)CC2CC(=O)N(C)C(=O)C2)C1 (stereo not given in full)" quantity_kind=TGI observed_measurement="> 100 µM"
compound=COc1ccc2c(c1)[C@]1(C[C@H]1c1ccc3c(/C=C/c4ccc(CN5C[C@@H](C)O[C@@H](C)C5)cc4)n[nH]c3c1)C(=O)N2 quantity_kind=TGI observed_measurement="> 73.6 µM"
compound="N#CC(c1ccc(Cl)cc1)c1c(O)nc2ccc(=N)cc-2n1O (stereo not given)" quantity_kind=TGI observed_measurement="> 100 µM"
compound=Cc1cc(=O)n(-c2ccccc2)c(=O)o1 quantity_kind=TGI observed_measurement="> 100 µM"

* * *

Test system: PC-3 prostate
PROTOCOL_NOTES: NCI tumour cell line growth inhibition, 48 h
QUANTITY_KIND: TGI

compound=Nc1nc(N)c(C2=CCN(Cc3ccccc3)CC2)c(=O)[nH]1 quantity_kind=TGI observed_measurement="> 100 µM"
compound="CC1(C)CC(=O)/C(=C/C2CCNC2=S)C(=O)N1 (stereo not drawn)" quantity_kind=TGI observed_measurement="> 100 µM"
compound=Cc1csc(/C=N/NC(=O)c2nnn(-c3ccnc4c(C(F)(F)F)cccc34)c2C)c1 quantity_kind=TGI observed_measurement="> 100 µM"
compound="COC1C(O)C(C)OC(OC2C(Oc3cccc4c(O)c5c(=O)oc6ccc(C)c7c(=O)oc(c34)c5c67)OC(C)C3O[C@H](c4ccccc4)OC32)C1O (stereo partly drawn)" quantity_kind=TGI observed_measurement="8.71 µM"
compound=O=C(CCN1CCOCC1)Nc1ccc(F)cc1F quantity_kind=TGI observed_measurement="> 100 µM"
compound="NC(C/[N+]([O-])=N/O)C(=O)O (stereo not drawn)" quantity_kind=TGI observed_measurement="> 500 µM"
compound=CN(C)/C(N)=N/C(N)=Nc1cccc(Cl)c1 quantity_kind=TGI observed_measurement="> 100 µM"
compound=CC1=C(C(=O)N[C@@H](Cc2ccccc2)C(=O)O)N2C(=O)[C@@H](NC(=O)[C@@H](N)CC(C)C)[C@H]2SC1 quantity_kind=TGI observed_measurement="> 100 µM"
compound=Cc1nc(Cl)c2sc(=S)n(-c3ccc(F)cc3)c2n1 quantity_kind=TGI observed_measurement="36.8 µM"
compound="O=C(c1ccco1)C1CC(c2ccc3ccccc3c2O)=NN1 (stereo not drawn)" quantity_kind=TGI observed_measurement="> 100 µM"
compound=COC(=O)Nc1nc2ccc(Oc3ccc4nc(NC(=O)OC)[nH]c4c3)cc2[nH]1 quantity_kind=TGI observed_measurement="> 78.5 µM"
compound="COc1cc(C2S/C(=C/c3ccccc3)C(=O)N2c2cc(Cl)ccc2Cl)cc(OC)c1OC (stereo not drawn)" quantity_kind=TGI observed_measurement="> 100 µM"
compound="COC1(C(C)(C)C)C=C(C(C)(C)C)P(=O)(O)O1 (stereo not drawn)" quantity_kind=TGI observed_measurement="> 100 µM"

* * *

Tested on: EKVX NSCLC
PROTOCOL_NOTES: NCI tumour cell line growth inhibition, 48 h
The following compounds are shown together with reported TGI values.
QUANTITY_KIND: TGI

compound=c1cc(-c2csc(-c3ccsc3)c2)cs1 observed_measurement="> 100 µM"
compound=CSc1c(C#N)c(O)n(-c2ccc(C)cc2)c(=O)c1C#N observed_measurement="> 100 µM"
compound=NC(N)=NS(=O)(=O)c1ccc(Nc2c3ccccc3nc3c(C(=O)N4CCN(CCO)CC4)cccc23)cc1 observed_measurement="> 100 µM"
compound=CCN(CC)C(=O)CC1=C(C)/C(=C/c2[nH]c(-c3ccc[nH]3)cc2OC)N=C1C observed_measurement="38.7 µM"
compound=CCCCSN1C(=O)c2ccccc2C1=S observed_measurement="> 100 µM"
compound=Cc1cc(C)nc(NS(=O)(=O)c2ccc(NN=c3c4ccccc4n(C)c4ccccc34)cc2)n1 observed_measurement="97.7 µM"
compound=C=C(C)[C@@H]1CC[C@]2(C)CC[C@]3(C)[C@H](CC[C@@H]4[C@@]5(C)CC[C@H](OC(=O)c6ccccc6)C(C)(C)[C@@H]5CC[C@]43C)[C@@H]12 observed_measurement="> 100 µM"
compound=COc1ccc(N(C)CN(C)c2nc(N(C)C)nc(N(C)C)n2)cc1 observed_measurement="> 100 µM"
compound="CCNC(C)(C)C(SS)c1ccc(Br)cc1 (stereo not drawn)" observed_measurement="> 100 µM"
compound="CC1(C)CCC[C@@]2(C)C1C[C@H](O)[C@@]1(C)O[C@@](C)([C@H](O)CO)CCC21 (stereo partly drawn)" observed_measurement="> 100 µM"
compound=CC1=C(C(=O)N[C@@H](Cc2ccccc2)C(=O)O)N2C(=O)[C@@H](NC(=O)[C@@H](N)CC(C)C)[C@H]2SC1 observed_measurement="> 100 µM"
compound=O=S(=O)(C(=Ic1ccccc1)S(=O)(=O)C(F)(F)C(F)(F)C(F)(F)C(F)(F)F)C(F)(F)C(F)(F)C(F)(F)C(F)(F)F observed_measurement="37.1 µM"
compound=CCCCN(CCCC)c1ccc(C(=N)c2ccc(N(C)C)cc2)cc1 observed_measurement="1.45 µM"
compound=O=C(Cc1nc2ccccc2c(=O)n1-c1c(Cl)cccc1Cl)c1ccncc1 observed_measurement="> 100 µM"
compound=CC(=O)Nc1ccc(-c2c3nc(c(-c4cc5ccccc5[n+](C)c4)c4ccc([nH]4)c(-c4ccc(NC(C)=O)cc4)c4nc(c(-c5cc6ccccc6[n+](C)c5)c5ccc2[nH]5)C=C4)C=C3)cc1 observed_measurement="31.6 µM"
compound=FC(F)(F)c1nc2ccc(SSc3ccc4nc(C(F)(F)F)[nH]c4c3)cc2[nH]1 observed_measurement="> 100 µM"
compound=OC(CC(CC(O)(C(F)(F)Cl)C(F)(F)Cl)=NNc1ccccc1)(C(F)(F)Cl)C(F)(F)Cl observed_measurement="7.35 µM"
compound=O=C(CCCn1c(=O)c2sc3ccccc3c2n2nnc(-c3ccccc3)c12)NCCc1cnc[nH]1 observed_measurement="8.77 µM"
